target: Phospholipase A2 (Homo sapiens); assay type: functional;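 also: confirmatory dose-response counterscreen on phospholipase A2, testing hits that came from an ultra-high-throughput screen for ATG4B inhibitors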
Sequence (P04054 whole entry): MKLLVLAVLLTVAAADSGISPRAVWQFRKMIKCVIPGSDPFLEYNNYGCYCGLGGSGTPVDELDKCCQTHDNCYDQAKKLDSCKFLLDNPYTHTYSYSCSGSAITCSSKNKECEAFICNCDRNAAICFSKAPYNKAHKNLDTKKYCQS
Activity calls are given as the source filed them.
Possible outcomes: active, inactive

> print(dat)
                           structure.string  discrete.label
1  Cc1ccc(S(=O)(=O)Nc2ccccc2/C=N/c2nc3ccccc3n2C(C)C)cc1          active
2  O=C(Nc1nc2c(cc3c4c(cccc42)CC3)s1)c1ccccc1Cl          active
3  C=CCn1c(-c2oc3nc(-c4ccccc4)cc(-c4ccccc4)c3c2N)n[nH]c1=S        inactive
4  CN(C)S(=O)(=O)c1ccc2[nH]cc(/C=C/c3nc4ccccc4c(=O)n3-c3ccccc3)c2c1        inactive
5  Cc1cccc(C)c1OCc1nc2ccccc2c(=O)n1/N=C/c1ccc(OCC(=O)O)cc1          active

----------
test: inhibitors of intracellular T. cruzi replication, confirmation, NIH3T3 host cells, beta-gal luminescence (AID 2044); type: functional, cell-based;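 also: intracellular parasites grown in NIH/3T3 mouse fibroblasts as host cells; luminescent beta-galactosidase reporter signal from transgenic T. cruzi replicating inside host cells; inhibitors lower the luminescence signal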
Calls of active or inactive are those of the source.
endpoint: EC50

> print(dat)
                                    molecule  endpoint       assay.result
 1   Cc1ccc(NC(=S)N=Nc2c(O)[nH]c3ccccc23)cc1      EC50   2.17 µM (active)
 2                     COc1cc(C)c(N)cc1C(C)C      EC50   16.9 µM (active)
 3  CC(C)(C)c1cc(Cl)c(O)c(NC(=S)NC(=O)c2cccnc2)c1      EC50   2.56 µM (active)
 4  COc1ccc(C2C(Oc3ccccc3)C(=O)N2c2cc(C)ccc2C)cc1OC (stereo not given)      EC50   2.24 µM (active)
 5  CC1CC(C)CN(c2ccc(C(=O)NCc3ccc4c(c3)OCO4)cc2[N+](=O)[O-])C1 (stereo not given)      EC50    1.1 µM (active)
 6  O=C(c1ccccc1)c1c[nH]c(C(=O)NNc2ccccc2)c1      EC50   1.71 µM (active)
 7  COc1ccc(CCN(C)C(=O)C2CCCN(Cc3ccc(OC)c(OC)c3)C2)cc1OC (stereo not given)      EC50  < 0.1 µM (active)
 8  O=C(CNC(=O)c1ccccc1)N/N=C/c1ccc([N+](=O)[O-])s1      EC50  0.285 µM (active)
 9  Cc1ccc(C#CC[N+]2(CC#Cc3ccc(C)cc3)CCCCC2)cc1      EC50  0.344 µM (active)
10  Cc1ccc(CNC(=O)CCC2CCCN(Cc3c(C)nn(C(C)C)c3C)C2)o1 (stereo not given)      EC50  < 0.1 µM (active)

----------
Listed here: items and their measured EC50.
assay: NIH-3T3 fibroblast cytotoxicity, dose response, cytotoxicity control, cell-based, fluorescence, Alamar Blue, secondary assay (AID 2327); format: functional;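 also: NIH-3T3 mouse fibroblasts cultured with fluconazole at 8 µg/mL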
The source made the active and inactive calls.
endpoint: EC50

> print(dat)
                                   compound             assay.result
1  CCCc1ccc(C2C3=C(CC(C)(C)CC3=O)N=C3C2=C(O)c2ccccc23)cc1 (centres undefined)      > 150 µM (inactive)
2        Cc1ccc(C(=O)CC(=O)c2ccccc2C)c(O)c1      > 150 µM (inactive)
3  C[n+]1c(-c2ccccc2)cc(-c2ccc(Cl)cc2)cc1-c1ccccc1.[O-][Cl+3]([O-])([O-])[O-]  > 160 µM (inconclusive)
4    COc1ccc(C(=O)NC(=S)NNC(=O)c2cnccn2)cc1         9.88 µM (active)

----------
molecular target: Peroxisome proliferator-activated receptor gamma/Nuclear receptor coactivator 3 (Homo sapiens); type: functional;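 also: agonist potency for raising coactivator recruitment to the receptor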
Sequence (P37231 whole entry): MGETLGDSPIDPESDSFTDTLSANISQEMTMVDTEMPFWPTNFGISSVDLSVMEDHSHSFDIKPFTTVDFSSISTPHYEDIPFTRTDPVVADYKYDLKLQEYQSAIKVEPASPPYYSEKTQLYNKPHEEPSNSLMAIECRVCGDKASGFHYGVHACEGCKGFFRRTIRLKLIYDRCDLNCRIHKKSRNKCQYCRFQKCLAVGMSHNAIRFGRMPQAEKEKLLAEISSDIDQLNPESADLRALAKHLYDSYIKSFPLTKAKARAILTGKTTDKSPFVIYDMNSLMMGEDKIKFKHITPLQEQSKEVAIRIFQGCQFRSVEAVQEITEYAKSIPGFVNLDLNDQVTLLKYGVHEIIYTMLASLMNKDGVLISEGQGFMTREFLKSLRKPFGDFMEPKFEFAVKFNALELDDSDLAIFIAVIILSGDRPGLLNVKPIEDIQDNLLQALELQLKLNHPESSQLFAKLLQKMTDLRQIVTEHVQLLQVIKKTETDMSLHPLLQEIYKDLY
Sequence (Q9Y6Q9 whole entry, further chain): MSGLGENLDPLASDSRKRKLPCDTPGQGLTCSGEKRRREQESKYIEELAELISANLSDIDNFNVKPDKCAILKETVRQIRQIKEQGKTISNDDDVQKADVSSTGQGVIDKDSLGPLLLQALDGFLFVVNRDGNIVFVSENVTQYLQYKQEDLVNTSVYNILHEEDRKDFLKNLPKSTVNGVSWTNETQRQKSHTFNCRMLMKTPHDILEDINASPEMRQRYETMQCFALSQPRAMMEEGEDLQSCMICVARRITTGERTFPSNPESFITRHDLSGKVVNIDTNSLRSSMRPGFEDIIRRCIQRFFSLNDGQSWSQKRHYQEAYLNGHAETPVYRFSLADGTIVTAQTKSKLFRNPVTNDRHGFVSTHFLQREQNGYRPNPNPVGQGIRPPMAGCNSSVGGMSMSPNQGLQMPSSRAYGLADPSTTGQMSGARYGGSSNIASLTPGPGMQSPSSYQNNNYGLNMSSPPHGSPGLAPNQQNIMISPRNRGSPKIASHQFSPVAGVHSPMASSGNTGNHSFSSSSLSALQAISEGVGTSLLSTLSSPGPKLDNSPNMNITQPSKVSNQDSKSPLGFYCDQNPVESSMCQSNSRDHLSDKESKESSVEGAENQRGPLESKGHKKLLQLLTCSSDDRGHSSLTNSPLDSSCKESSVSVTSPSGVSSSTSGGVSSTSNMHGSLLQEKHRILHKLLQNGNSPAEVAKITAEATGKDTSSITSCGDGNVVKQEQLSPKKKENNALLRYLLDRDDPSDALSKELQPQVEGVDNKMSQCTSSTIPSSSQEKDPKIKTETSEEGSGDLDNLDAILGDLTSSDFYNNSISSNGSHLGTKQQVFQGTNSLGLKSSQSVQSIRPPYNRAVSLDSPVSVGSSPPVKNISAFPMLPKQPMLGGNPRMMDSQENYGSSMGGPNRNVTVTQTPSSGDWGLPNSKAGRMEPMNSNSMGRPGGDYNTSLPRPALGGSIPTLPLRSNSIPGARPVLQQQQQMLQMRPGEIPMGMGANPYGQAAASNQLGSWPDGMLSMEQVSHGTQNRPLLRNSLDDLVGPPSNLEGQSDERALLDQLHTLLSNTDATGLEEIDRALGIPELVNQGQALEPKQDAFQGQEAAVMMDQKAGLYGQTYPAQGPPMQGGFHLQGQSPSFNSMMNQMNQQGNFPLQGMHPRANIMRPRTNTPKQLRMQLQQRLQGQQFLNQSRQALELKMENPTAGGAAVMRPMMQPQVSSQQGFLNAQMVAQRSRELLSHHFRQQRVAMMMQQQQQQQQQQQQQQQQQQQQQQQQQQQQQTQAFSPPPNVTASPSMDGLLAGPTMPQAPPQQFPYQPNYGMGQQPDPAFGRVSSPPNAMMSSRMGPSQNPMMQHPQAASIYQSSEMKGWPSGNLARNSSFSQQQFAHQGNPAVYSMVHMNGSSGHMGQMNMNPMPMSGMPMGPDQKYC
Listed here are compounds together with their documented EC50.
endpoint: EC50

> print(dat)
                                   compound  endpoint            assay.result
1  CN(C)c1ccc(/N=C/C=C2\N(C)c3ccccc3C2(C)C)cc1      EC50  > 79.4 µM (not active)
2  Nc1nc(C2CCCN2S(=O)(=O)c2ccc(Cl)cc2)cs1 (stereo unspecified)      EC50  > 79.4 µM (not active)
3  CCOC(=O)c1s/c(=N\C(=O)c2ccc(OC(C)C)cc2)n(C)c1C      EC50    20.3 µM (not active)
4  COc1ccc(C2CC(=O)c3c([nH]c(C(=O)OC(C)C)c3C)C2)cc1OC (stereo unspecified)      EC50  > 79.4 µM (not active)
5    CCc1nnc(NC(=O)CSc2ncnc3c2oc2ccccc23)s1      EC50    23.5 µM (not active)
6  CCc1ccc(N2CSC3=C(C#N)C(c4cccs4)CC(=O)N3C2)cc1 (stereo unspecified)      EC50    77.8 µM (not active)

----------
biological target: Glucose-6-phosphate 1-dehydrogenase (Homo sapiens); assay: human G6PD enzyme inhibitors, dose response, selectivity assay for P. falciparum G6PD inhibitor project, biochemical, fluorescence (AID 504792); format: functional
Sequence (P11413 whole entry): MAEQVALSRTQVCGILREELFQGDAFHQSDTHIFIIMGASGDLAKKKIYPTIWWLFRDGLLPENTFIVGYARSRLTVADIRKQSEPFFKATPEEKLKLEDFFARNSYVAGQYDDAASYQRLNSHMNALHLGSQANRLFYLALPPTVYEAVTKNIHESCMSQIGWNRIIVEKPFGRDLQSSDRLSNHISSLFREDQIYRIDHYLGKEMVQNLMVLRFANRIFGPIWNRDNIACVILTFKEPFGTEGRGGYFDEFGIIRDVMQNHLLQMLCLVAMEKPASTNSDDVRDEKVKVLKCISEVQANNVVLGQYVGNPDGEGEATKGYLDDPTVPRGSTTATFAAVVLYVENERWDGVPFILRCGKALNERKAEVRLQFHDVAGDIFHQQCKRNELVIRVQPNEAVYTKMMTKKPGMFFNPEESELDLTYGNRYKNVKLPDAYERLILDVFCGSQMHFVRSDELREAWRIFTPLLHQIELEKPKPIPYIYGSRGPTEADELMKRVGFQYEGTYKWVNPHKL
Activity calls are given as the source filed them.
compounds and their reported IC50
endpoint: IC50

> print(dat)
                                   compound  endpoint        assay.result
1  O=C(Nc1ccccc1C(=O)N/N=C/c1ccco1)c1ccccc1Cl      IC50  > 80 µM (inactive)
2  Cc1ccc(C(=O)Nc2nnc(S(=O)(=O)N3CCC(C)CC3)s2)cc1      IC50  > 80 µM (inactive)
3  Cc1ccc([S+]([O-])c2ccc([N+](=O)[O-])c3nonc23)cc1 (stereo unspecified)      IC50  42.3 µM (inactive)
4  COc1cc(/C=C/C(=O)c2ccc([N+](=O)[O-])o2)ccc1O      IC50  60.4 µM (inactive)
5           O=C(CSc1nc2cc(Cl)ccc2s1)c1ccco1      IC50  > 80 µM (inactive)
6           Cc1[nH]c2ccccc2c1/C=N/Nc1nncn1N      IC50  44.1 µM (inactive)

----------
Target: Zinc finger protein mex-5 (Caenorhabditis elegans)
Sequence (Q9XUB2 whole entry): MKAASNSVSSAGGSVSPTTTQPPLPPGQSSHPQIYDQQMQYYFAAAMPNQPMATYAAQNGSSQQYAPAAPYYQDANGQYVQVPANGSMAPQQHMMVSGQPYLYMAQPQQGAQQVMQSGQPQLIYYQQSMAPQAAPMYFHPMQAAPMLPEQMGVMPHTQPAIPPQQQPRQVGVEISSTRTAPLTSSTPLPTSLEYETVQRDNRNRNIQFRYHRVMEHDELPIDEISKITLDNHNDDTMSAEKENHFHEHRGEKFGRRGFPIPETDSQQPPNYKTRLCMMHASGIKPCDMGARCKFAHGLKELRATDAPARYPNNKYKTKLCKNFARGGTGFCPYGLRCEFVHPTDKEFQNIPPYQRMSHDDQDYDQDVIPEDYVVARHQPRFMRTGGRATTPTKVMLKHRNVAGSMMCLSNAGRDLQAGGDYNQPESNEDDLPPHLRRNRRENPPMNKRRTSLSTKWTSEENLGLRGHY
Test: MEX-5/TCR-2 RNA interaction inhibitors, dose response, biochemical, C. elegans, fluorescence polarization (AID 1960)
Calls of active or inactive are those of the source.
endpoint: EC50

> print(dat)
                                    compound                     target.or.test.system             assay.result
 1  Cc1cc(C=O)c(C)n1-c1cc(C(=O)O)cc(C(=O)O)c1  Zinc finger protein mex-5 (Caenorhabditis elegans)    > 300 µM (not active)
 2           CCOC(=O)c1ccc(-c2ccc(C=O)o2)cc1  Zinc finger protein mex-5 (Caenorhabditis elegans)    > 300 µM (not active)
 3  COc1cccc(C2(O)CCN(CC(=O)Nc3nc(C)cs3)CC2)c1  Zinc finger protein mex-5 (Caenorhabditis elegans)    > 300 µM (not active)
 4  CCOC(=O)c1ccc(-n2c(CCC(=O)O)ccc2-c2ccccc2)cc1  Zinc finger protein mex-5 (Caenorhabditis elegans)    > 300 µM (not active)
 5       CC(=O)NCCNc1ccc([N+](=O)[O-])cc1C#N  Zinc finger protein mex-5 (Caenorhabditis elegans)    > 300 µM (not active)
 6  CC(=O)N(C)c1ccc(/N=N/c2c(C)[nH]n(C(N)=S)c2=O)cc1  Zinc finger protein mex-5 (Caenorhabditis elegans)         24.2 µM (active)
 7  N#CC(C#N)=Cc1ccc(-c2ccc(S(=O)(=O)NC(=N)N)cc2)o1  Zinc finger protein mex-5 (Caenorhabditis elegans)          236 µM (active)
 8  N#CC1=C(N)C(C#N)(C#N)C(c2cccnc2)C2CCCC=C12 (centres undefined)  Zinc finger protein mex-5 (Caenorhabditis elegans)         17.5 µM (active)
 9  Cc1onc(-c2c(F)cccc2Cl)c1C(=O)N1CCCc2ccccc21  Zinc finger protein mex-5 (Caenorhabditis elegans)    > 300 µM (not active)
10  CCCCC1=CC2=CC(=O)C(C)(OC(=O)c3cnc4ccccc4n3)C(=O)C2=CO1 (centres undefined)  Zinc finger protein mex-5 (Caenorhabditis elegans)           19 µM (active)
11        Oc1c(/C=N/c2ccccc2Cl)[nH]c2ccccc12  Zinc finger protein mex-5 (Caenorhabditis elegans)    > 300 µM (not active)
12  COc1ccc(NC(=O)c2sc3nc(-c4cccnc4)ccc3c2N)cc1OC  Zinc finger protein mex-5 (Caenorhabditis elegans)  > 300 µM (inconclusive)
13                O=CN/N=C/c1c(O)ccc2ccccc12  Zinc finger protein mex-5 (Caenorhabditis elegans)         5.35 µM (active)
14  C/C(=N\C1CCCC1)c1c(C)[nH]n(-c2nc3ccccc3s2)c1=O  Zinc finger protein mex-5 (Caenorhabditis elegans)    > 300 µM (not active)

Every entry's value here was drawn from ChEMBL document CHEMBL1201862.
